system: SW1990 pancreatic adenocarcinoma cells [homozygous G12D]; assay: Cancer cell line proliferation (CellTiter-Glo), SW1990; type: cell-based; settings: Homo sapiens, 72 hr treatment, read-out: SW1990 CTG (EC50)
pEC50: −log10 of the molar value.
ENDPOINT NAME: pEC50

C#Cc1cccc2cc(O)cc(-c3ncc4c(N5CC6CCC(C5)N6)nc(OCC5(CN6CCN(CC7CCN(Cc8ccc(-n9c(C(=O)NCC)nnc9-c9cc(C(C)C)c(O)cc9O)cc8)CC7)CC6)CC5)nc4c3F)c12 [Example 2] :: > 7.00

Switching to the query record.
Q: Any idea what its pEC50 is? The compound is C#Cc1c(F)ccc2cc(O)cc(-c3ncc4c(N5CC6CCC(C5)N6)nc(OCC5(CN6CCN(CC7CCN(Cc8ccc(-n9c(C(=O)NC(C)C(F)(F)F)nnc9-c9cc(C(C)C)c(O)cc9O)cc8)CC7)CC6)CC5)nc4c3F)c12 (centres unmarked) [Compound 153]
A: > 7.00

* * *

For each record, write down the corresponding pEC50.
system: SW1990 pancreatic adenocarcinoma cells [homozygous G12D]; assay: Cancer cell line proliferation (CellTiter-Glo), SW1990; type: cell-based; conditions: Homo sapiens, 72 hr treatment, read-out: SW1990 CTG (EC50)
pEC50: −log10 of the molar value.

Sample answers from the record:
C#Cc1cccc2cc(O)cc(-c3ncc4c(N5CC6CCC(C5)N6)nc(OCC5(CN6CCN(CC7CCN(Cc8ccc(-n9c(C(=O)NC(C)C(F)(F)F)nnc9-c9cc(C(C)C)c(O)cc9O)cc8)CC7)CC6)CC5)nc4c3F)c12 (centres unmarked) :: > 7.00
C#Cc1c(F)ccc2cc(O)cc(-c3ncc4c(N5CC6CCC(C5)N6)nc(OCC5(CN6CCN(C7CN(Cc8ccc(-n9c(C(=O)NC(C)C(F)(F)F)nnc9-c9cc(C(C)C)c(O)cc9O)cc8)C7)CC6)CC5)nc4c3F)c12 (centres unmarked) :: > 7.00
C#Cc1cccc2cc(O)cc(-c3ncc4c(N5CC6CCC(C5)N6)nc(OCC5(CN6CCN(CC7CCN(Cc8ccc9c(c8)CN(C(=O)c8cc(C(C)C)c(O)cc8OC)C9)CC7)CC6)CC5)nc4c3F)c12 :: > 7.00

Field: pEC50. Fill in for each record below.
1. CCNC(=O)c1nnc(-c2cc(C(C)C)c(O)cc2O)n1-c1ccc(CN2CCN([C@H]3C[C@@H](COc4nc(N5CC6CCC(C5)N6)c5cnc(-c6cccc7cccc(OC)c67)c(F)c5n4)N(C)C3)CC2)cc1
2. C#Cc1c(F)ccc2cc(O)cc(-c3nc(OC)c4c(N5CC6CCC(C5)N6)nc(OCC5(CN6CCN(C7CCN(Cc8ccc9c(c8)CN(C(=O)c8cc(O)c(C(C)C)cc8O)C9)CC7)CC6)CC5)nc4c3F)c12

A:
6.00 to 7.00
> 7.00

Field: pEC50. Fill in for each record below.
1. C#Cc1cccc2cccc(-c3ncc4c(N5CC6CCC(C5)N6)nc(OCC5(CN6CCN(Cc7ccc(-n8c(C(=O)NC(C)C(F)(F)F)nnc8-c8cc(C(C)C)c(O)cc8O)cc7)CC6)CC5)nc4c3F)c12 (centres unmarked)
2. C#Cc1c(F)ccc2cc(O)cc(-c3ncc4c(N5CC6CCC(C5)N6)nc(OCC5(CN6CCN(CC7CCN(Cc8ccc(-n9c(C(=O)NCC)nnc9-c9cc(C(C)C)c(O)cc9O)cc8)CC7)CC6)CC5)nc4c3F)c12
3. C#Cc1c(F)ccc2cc(O)cc(-c3ncc4c(N5CC6CCC(C5)N6)nc(OCC5(CN6CCC(C7CCN(Cc8ccc9c(c8)CN(C(=O)c8cc(C(C)C)c(O)cc8O)C9)CC7)CC6)CC5)nc4c3F)c12
4. C#Cc1cccc2cc(O)cc(-c3ncc4c(N5CC6CCC(C5)N6)nc(OCC5(CN6CCN(CC7CCN(Cc8ccc(-n9c(C(=O)NCC(F)(F)F)nnc9-c9cc(C(C)C)c(O)cc9O)cc8)CC7)CC6)CC5)nc4c3F)c12
5. C#Cc1c(F)ccc2cc(O)cc(-c3ncc4c(N5CC6CNC(C6)C5)nc(OCC5(CN6CCC(C7CCN(Cc8ccc9c(c8)CN(C(=O)c8cc(O)c(C(C)C)cc8O)C9)CC7)CC6)CC5)nc4c3F)c12 (centres unmarked)
6. C#Cc1c(F)ccc2cc(O)cc(-c3ncc4c(N5CC6CCC(C5)N6)nc(OCC5(CN6CCC(N7CCN(Cc8ccc9c(c8)CN(C(=O)c8cc(C(C)C)c(O)cc8O)C9)CC7)CC6)CC5)nc4c3F)c12
7. CCNC(=O)c1nnc(-c2cc(C(C)C)c(O)cc2O)n1-c1ccc(CN2CCC(C(=O)N3CCN([C@H]4C[C@@H](COc5nc(N6CC7CCC(C6)N7)c6cnc(-c7cccc(C)c7C)c(F)c6n5)N(C)C4)CC3)CC2)cc1

A:
1: 6.00 to 7.00; 2: > 7.00; 3: > 7.00; 4: > 7.00; 5: < 6.00; 6: > 7.00; 7: > 7.00

Field: pEC50. Fill in for each record below.
1. C#Cc1c(F)ccc2cc(O)cc(-c3ncc4c(N5CC6CNC(C6)C5)nc(OCC5(CN6CCC(C7CCN(Cc8ccc(-n9c(C(=O)NC(C)C(F)(F)F)nnc9-c9cc(C(C)C)c(O)cc9O)cc8)CC7)CC6)CC5)nc4c3F)c12 (centres unmarked)
2. C#Cc1c(F)ccc2cc(O)cc(-c3ncc4c(N5CC6CCC(C5)N6)nc(OCC5(CN6CCN(CC7CN(Cc8ccc(-n9c(C(=O)NCC(F)(F)F)nnc9-c9cc(C(C)C)c(O)cc9O)cc8)C7)CC6)CC5)nc4c3F)c12
3. C#Cc1c(F)ccc2cc(O)cc(-c3ncc4c(N5CC6CNC(C6)C5)nc(OCC5(CN6CCN(C7CCN(Cc8ccc(-n9c(C(=O)NC(C)C(F)(F)F)nnc9-c9cc(C(C)C)c(O)cc9O)cc8)CC7)CC6)CC5)nc4c3F)c12 (centres unmarked)

A:
["6.00 to 7.00", "> 7.00", "6.00 to 7.00"]

Field: pEC50. Fill in for each record below.
1. C#Cc1c(F)ccc2cc(O)cc(-c3ncc4c(N5CC6CCC(C5)N6C(=O)C(F)(F)F)nc(OCC5(CN6CCN(CC7CCN(Cc8ccc(-n9c(C(=O)NC(C)C(F)(F)F)nnc9-c9cc(C(C)C)c(O)cc9O)cc8)CC7)CC6)CC5)nc4c3F)c12 (centres unmarked)
2. CC(C)c1cc(C(=O)N2Cc3ccc(CN4CCN([C@H]5C[C@@H](COc6nc(N7CC8CCC(C7)N8)c7cnc(-c8cccc9ccccc89)c(F)c7n6)N(C)C5)CC4)cc3C2)c(O)cc1O

A:
["> 7.00", "6.00 to 7.00"]

* * *

target: KRAS(G12D)/SOS1 (Homo sapiens, UniProt P01116, G12D); assay: KRAS(G12D)/SOS1 homogeneous time-resolved fluorescence (HTRF) assay; conditions: absence of GTP; 4° C., 3 hr
Sequence (P01116 1-188 isoform P01116-2 G12D): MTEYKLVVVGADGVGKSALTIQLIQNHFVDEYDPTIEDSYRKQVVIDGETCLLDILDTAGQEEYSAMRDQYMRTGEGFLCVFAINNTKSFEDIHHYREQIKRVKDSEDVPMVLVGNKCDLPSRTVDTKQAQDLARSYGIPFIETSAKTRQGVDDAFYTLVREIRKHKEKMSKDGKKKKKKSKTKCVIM
pIC50: −log10 of the molar value.
ENDPOINT NAME: pIC50

Field: pIC50. Fill in for each record below.
1. CCc1cc(-c2nnc(C(=O)NCC(F)(F)F)n2-c2ccc(CN3CCN([C@H]4C[C@@H](COc5nc(N6CC7CCC(C6)N7)c6cnc(-c7cccc8cccc(OC)c78)c(F)c6n5)N(C)C4)CC3)cc2)c(O)cc1O
2. Cc1cccc2cccc(-c3ncc4c(N5CC6CCC(C5)N6)nc(OC[C@@H]5C[C@H](N6CCN(Cc7ccc8c(c7)CN(C(=O)c7cc(C(C)C)c(O)cc7O)C8)CC6)CN5C)nc4c3F)c12 [Example 1]

A:
["< 6.00", "6.00 to 7.00"]

Field: pIC50. Fill in for each record below.
1. C#Cc1c(F)ccc2cc(O)cc(-c3ncc4c(N5CC6CCC(C5)N6)nc(OCC5(CN6CCN(CC7CCN(Cc8ccc(-n9c(C(=O)NCC)nnc9-c9cc(CC)c(O)cc9O)cc8)CC7)CC6)CC5)nc4c3F)c12
2. C#Cc1cccc2cccc(-c3ncc4c(N5CC6CCC(C5)N6)nc(OC[C@@H]5C[C@H](N6CCN(CCN(CC)C(=O)c7cc(C(C)C)c(O)cc7O)CC6)CN5C)nc4c3F)c12

A:
["> 7.00", "> 7.00"]

* * *

For each record, write down the corresponding EC50.
Test system: AGS gastric carcinoma cells [heterozygous G12D]
Experiment: Cancer cell line proliferation (CellTiter-Glo), AGS
Format: cell-based
Details: Homo sapiens, 72 hr treatment, read-out: AGS CTG (EC50)
Method: The following cancer cell lines were employed: AGS gastric carcinoma [heterozygous G12D](ATCC, CRL-1739); A-427 lung carcinoma [heterozygous G12D](ATCC, HTB-53); ASPC1 pancreatic adenocarcinoma [homozygous G12D](ATCC, CRL-1682) and SW1990 pancreatic adenocarcinoma [homozygous G12D](ATCC CRL-2172). Cell lines were cultured essentially according to ATCC recommendations. […]

Sample answers from the record:
CCNC(=O)c1nnc(-c2cc(C(C)C)c(O)cc2O)n1-c1ccc(CN2CCN([C@H]3C[C@@H](COc4nc(N5CC6CCC(C5)N6)c5cnc(-c6cccc7cccc(C#N)c67)c(F)c5n4)N(C)C3)CC2)cc1 [Compound 59] :: < 100 nM
C#Cc1c(F)ccc2cc(O)cc(-c3ncc4c(N5CC6CCC(C5)N6)nc(OC[C@H]5CCCN5Cc5ccc(-n6c(C(=O)NC(C)C(F)(F)F)nnc6-c6cc(C(C)C)c(O)cc6O)cc5)nc4c3F)c12 (some centres unmarked) [Compound 206] :: 100 to 1000 nM
C#Cc1cccc2cc(O)cc(-c3ncc4c(N5CC6CNC(C6)C5)nc(OCC5(CN6CCN(CC7CCN(Cc8ccc(-n9c(C(=O)NC(C)C(F)(F)F)nnc9-c9cc(C(C)C)c(O)cc9O)cc8)CC7)CC6)CC5)nc4c3F)c12 (centres unmarked) [Compound 134] :: 100 to 1000 nM
C#Cc1c(F)ccc2cc(O)cc(-c3nc(OC)c4c(N5CC6CCC(C5)N6)nc(OCC5(CNCC6CN(Cc7ccc8c(c7)CN(C(=O)c7cc(C(C)C)c(O)cc7O)C8)CCO6)CC5)nc4c3F)c12 (centres unmarked) [Compound 191] :: < 100 nM

Switching to the query record.
Q: State its EC50 on AGS gastric carcinoma cells [heterozygous G12D]: CC(C)c1cc(C(=O)N2Cc3ccc(CN(C)[C@H]4CN5CCC[C@]5(COc5nc(N6CC7CCC(C6)N7)c6cnc(-c7cc(O)cc8ccccc78)c(F)c6n5)C4)cc3C2)c(O)cc1O [Compound 45]
A: 100 to 1000 nM
